# pIC50 per entry
- targetSystem: H. sapiens p97 (P55072) (Homo sapiens, UniProt P55072)
- Construct: purified recombinant full-length (1-806aa) H; 6xHis (N); made in house; host or cells: E. coli BL21 (DE3)
- Sequence (P55072 whole entry): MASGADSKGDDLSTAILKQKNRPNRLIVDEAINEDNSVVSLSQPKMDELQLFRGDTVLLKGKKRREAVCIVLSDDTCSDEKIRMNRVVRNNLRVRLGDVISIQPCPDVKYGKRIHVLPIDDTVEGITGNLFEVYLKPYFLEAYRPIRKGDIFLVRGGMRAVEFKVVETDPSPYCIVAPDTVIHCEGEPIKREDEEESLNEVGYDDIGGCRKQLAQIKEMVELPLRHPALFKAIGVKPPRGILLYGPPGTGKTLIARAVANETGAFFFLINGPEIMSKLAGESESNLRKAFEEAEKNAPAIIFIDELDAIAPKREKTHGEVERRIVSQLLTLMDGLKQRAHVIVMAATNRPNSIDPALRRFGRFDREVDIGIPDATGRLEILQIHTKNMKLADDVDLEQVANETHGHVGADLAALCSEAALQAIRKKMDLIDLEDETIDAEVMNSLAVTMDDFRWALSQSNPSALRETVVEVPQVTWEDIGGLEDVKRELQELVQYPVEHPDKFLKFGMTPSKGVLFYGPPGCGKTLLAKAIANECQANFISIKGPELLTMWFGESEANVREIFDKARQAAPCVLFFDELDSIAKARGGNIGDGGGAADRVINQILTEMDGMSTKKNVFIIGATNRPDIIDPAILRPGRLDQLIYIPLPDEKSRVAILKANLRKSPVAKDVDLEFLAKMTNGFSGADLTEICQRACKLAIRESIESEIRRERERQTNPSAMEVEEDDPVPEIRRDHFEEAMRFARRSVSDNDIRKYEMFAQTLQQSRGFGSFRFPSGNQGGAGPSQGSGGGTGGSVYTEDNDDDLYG
- testSummary: Kinase-Glo ATP consumption assay, recombinant H. sapiens p97
- Type: biochemical
- setupConditions: recombinant Hsp97, Kinase-Glo, 100 μM to 1 nM; NA = no notable effect on the enzyme at tested concentrations; >100 = IC50 predicted above 100 μM or maximal inhibition not achieved
pIC50: −log10 of the molar value.
endpointName: pIC50

INSERT INTO assay_data (compound, targetsystem, endpointname, val) VALUES
  ('O=C(C#Cc1ccccn1)Nc1ccc2oc(-c3ccccn3)nc2c1 [Compound 737]', 'H. sapiens p97 (P55072) (Homo sapiens, UniProt P55072)', 'pIC50', 4.89),
  ('O=C(C#Cc1ccccc1)Nc1ccc2oc(-c3ccncc3)nc2c1 [Compound 242]', 'H. sapiens p97 (P55072) (Homo sapiens, UniProt P55072)', 'pIC50', 4.92),
  ('COc1ccc(C#CC(=O)Nc2ccc3oc(-c4ccccn4)nc3c2)cc1 [Compound 734]', 'H. sapiens p97 (P55072) (Homo sapiens, UniProt P55072)', 'pIC50', 4.08),
  ('Cc1ccc(-c2nc3cc(NC(=O)C#Cc4ccncc4)ccc3o2)nc1 [Compound 806]', 'H. sapiens p97 (P55072) (Homo sapiens, UniProt P55072)', 'pIC50', 6.29),
  ('Cc1ccnc(-c2nc3cc(NC(=O)C#Cc4ccncc4)ccc3o2)c1 [Compound 805]', 'H. sapiens p97 (P55072) (Homo sapiens, UniProt P55072)', 'pIC50', 6.85);

###

- targetSystem: S. mansoni p97 (Smp_018240) (Schistosoma mansoni, UniProt G4M0P7)
- Sequence (G4M0P7 entry or part of it): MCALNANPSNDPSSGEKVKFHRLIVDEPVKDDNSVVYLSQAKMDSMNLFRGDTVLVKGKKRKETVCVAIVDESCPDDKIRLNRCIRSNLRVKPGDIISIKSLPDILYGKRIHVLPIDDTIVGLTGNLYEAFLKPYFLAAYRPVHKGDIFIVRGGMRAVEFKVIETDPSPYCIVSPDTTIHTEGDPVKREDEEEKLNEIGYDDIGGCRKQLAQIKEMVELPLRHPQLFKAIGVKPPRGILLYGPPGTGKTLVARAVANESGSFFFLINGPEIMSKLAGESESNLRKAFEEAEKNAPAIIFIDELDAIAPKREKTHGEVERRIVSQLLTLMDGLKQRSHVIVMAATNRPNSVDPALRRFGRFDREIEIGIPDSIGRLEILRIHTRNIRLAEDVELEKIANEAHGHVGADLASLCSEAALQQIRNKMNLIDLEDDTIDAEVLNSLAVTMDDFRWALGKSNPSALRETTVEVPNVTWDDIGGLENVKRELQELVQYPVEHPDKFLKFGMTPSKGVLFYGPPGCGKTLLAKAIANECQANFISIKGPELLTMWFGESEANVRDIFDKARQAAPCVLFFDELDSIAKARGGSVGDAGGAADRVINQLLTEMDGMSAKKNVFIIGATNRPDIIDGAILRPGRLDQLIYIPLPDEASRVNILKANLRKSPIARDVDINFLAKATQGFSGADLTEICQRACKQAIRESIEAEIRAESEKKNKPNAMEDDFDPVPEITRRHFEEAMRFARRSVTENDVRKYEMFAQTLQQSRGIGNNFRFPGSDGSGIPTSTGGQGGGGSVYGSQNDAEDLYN
- Format: biochemical
pIC50: −log10 of the molar value.
# pIC50 per entry
endpointName: pIC50

INSERT INTO measurements (smilesrepr, val) VALUES
  ('O=C(C#Cc1ccccc1)Nc1ccc2oc(-c3ccccc3)nc2c1', 5.42),
  ('O=C(C#Cc1ccccc1)Nc1ccc2oc(-c3ccccn3)nc2c1', 5.68),
  ('Cc1ccnc(-c2nc3cc(NC(=O)C#Cc4ccncc4)ccc3o2)c1', 6.77);

###

- targetSystem: S. mansoni p97 (Smp_018240) (Schistosoma mansoni)
- Assay type: biochemical
- setupConditions: H. sapiens p97 IC50 versus S. mansoni p97 IC50
endpointName: Fold Selectivity (parasite enzyme over human enzyme) (fold)

INSERT INTO results (smilesrepr, val) VALUES
  ('O=C(C#Cc1cccnc1)Nc1ccc2oc(-c3ccccn3)nc2c1', 1.9),
  ('O=C(C#Cc1ccc(Cl)cc1)Nc1ccc2oc(-c3ccccn3)nc2c1', 1.1),
  ('Cc1ccc(-c2nc3cc(NC(=O)C#Cc4ccncc4)ccc3o2)nc1', 1.1),
  ('Cc1ccnc(-c2nc3cc(NC(=O)C#Cc4ccncc4)ccc3o2)c1', 0.80),
  ('O=C(C#Cc1ccccc1)Nc1ccc2oc(-c3ccncc3)nc2c1', 8.6),
  ('Cc1cccc(-c2nc3cc(NC(=O)C#Cc4ccncc4)ccc3o2)n1', 0.70),
  ('O=C(C#Cc1ccccn1)Nc1ccc2oc(-c3ccccn3)nc2c1', 4.3);
